Each entry below lists one item and its recorded ED50 value.
Tested on: Mus musculus
Test: Neurotoxicity in po dosed mouse by rotarod test
Format: toxicity, organism-based
Settings: in vivo
Enter your answer as a number in mg/kg; do not include the unit.

Previously resolved entries follow.
CCCNCC(=O)Nc1ccc(C2NC(=O)C(C)c3ccccc32)cc1 (stereo not drawn)
340
CC1C(=O)NC(c2ccc(N)cc2)c2ccccc21 (stereo not drawn)
250

Ask | Any idea what its ED50 is? The molecule is Cl.Nc1ccc(C2NC(=O)Cc3ccccc32)cc1 (stereo not drawn)
Reply | 95
